test system: PPARg:RXRa IVT, anti-PPARg (NR concentration 270 nM, RXRa partner concentration 90 nM); assay: PBM binding z-score (relative to random genomic background probes); higher = stronger binding; sequences stand for … in GC…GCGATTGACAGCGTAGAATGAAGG
endpoint label: PBM binding z-score

Kindly note the recorded PBM binding z-score for "CTATGTAGGTTAATGGGGTCATTCAGTTTGAAAG" , which is 7.83

Kindly note the recorded PBM binding z-score for "ATATGTAGGTTAGGGTCATTGAGAAAGTAGGGAA" , which is 6.47

Kindly note the recorded PBM binding z-score for "ATATGTAGGTTAGGGTGATTCAGAAAGTAGGGAA" , which is 6.39

Kindly note the recorded PBM binding z-score for "TCTGCTATGTCAACGATGGTCAGCTAATCTGCTA" , which is -0.00611

Kindly note the recorded PBM binding z-score for "GGAACTAGGGCAAAGTTGATAGCATCTGTCGACG" , which is 7.8

Kindly note the recorded PBM binding z-score for "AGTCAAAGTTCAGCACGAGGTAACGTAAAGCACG" , which is 2.28

Kindly note the recorded PBM binding z-score for "CTTAGTTGGTCAAGGTCACACACGCTATAGGTAC" , which is 4.92

Kindly note the recorded PBM binding z-score for "GGAACGGGGGCATTCGAGTTGATAGCATGGCGAT" , which is 5.37

Kindly note the recorded PBM binding z-score for "TCTCGGAGGACACGAAAGGTCAGTGCTCGACATC" , which is 1.67

Kindly note the recorded PBM binding z-score for "ACTCGGAGGACAAATGTCAGAGCTACGCCAGTGA" , which is 0.0513

Kindly note the recorded PBM binding z-score for "CGTCAAAGTTCAAGCTAACGTAACAGAAAGCAGC" , which is 1.77

Kindly note the recorded PBM binding z-score for "TCGAGTCGGTTACGGGGGCATTCAGGGATGAAGA" , which is 3.65

Kindly note the recorded PBM binding z-score for "CCTCGGAGGACACCAGGAGGTCAGAGCTGCCAGA" , which is 0.459

Kindly note the recorded PBM binding z-score for "CGTCCAACGTCAGCAGGTCAGTGAAAGCGACGTG" , which is 0.161

Kindly note the recorded PBM binding z-score for "CGTCCAAGGTCCATGCTAGGTCAGTGAAAGCATT" , which is 0.351

Kindly note the recorded PBM binding z-score for "AATACAGGGTCACTTGGCCAGAGTAGGTACGAAT" , which is 4.18

Kindly note the recorded PBM binding z-score for "TCTGCTAGGTCAACGATGGTCAGCGAATCTGCTA" , which is 4.01

Kindly note the recorded PBM binding z-score for "AATACAGGATCACTAGGCCAGAGTAGGTACGAAT" , which is 1.29

Kindly note the recorded PBM binding z-score for "CGTCAAAGTTCAAGGTAATGTAACAGAAAGCAGC" , which is 2.03

Kindly note the recorded PBM binding z-score for "ATCGTAAGGTCGTGAGGTGAGTATACAGAAAGGC" , which is 1.65

Kindly note the recorded PBM binding z-score for "TCGAGTTGGTTACGGGGGCATTCAGGGATGAAGA" , which is 3.75

Kindly note the recorded PBM binding z-score for "CGAACTAGGTCCCCAGGACAGTGAAGAGGTTGGA" , which is 2.5

Kindly note the recorded PBM binding z-score for "CGAACTAGGTCACTAGGACAGTGAAGAGGTTGGA" , which is 8.81

Kindly note the recorded PBM binding z-score for "CCGAGTAGGTTACGAGGGGACATTCAGTGCGAAT" , which is 4.14

Kindly note the recorded PBM binding z-score for "TCGAGTAGGTTACTGGGGCATTCAGGGATGAAGA" , which is 6.18

Kindly note the recorded PBM binding z-score for "CGATGTAGGTTAAGGGGGTCATTCAGTTTGAAAG" , which is 7.49

###

Assign PBM binding z-score to each entry below.
test system: RXRa homodimer (NR concentration 180 nM); assay: PBM binding z-score (relative to random genomic background probes); higher = stronger binding; sequences stand for … in GC…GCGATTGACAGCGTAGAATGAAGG
Kindly provide the number alone.

Kindly note the recorded PBM binding z-score for "CTATGTAGGTTAAAGGGGTCATTCAGTTTGAAAG" , which is 6.56

Kindly note the recorded PBM binding z-score for "CGAACTAGGTCACCAGGACAGTGCAGAGGTTGGA" , which is 3.58

Kindly note the recorded PBM binding z-score for "ATATGTAGATTAGGGTCATTCAGAAAGTAGGGAA" , which is 4.53

Kindly note the recorded PBM binding z-score for "ATCGAAAGGTCGACGAGGAGAGTATACACCGTTT" , which is 3.91

Kindly note the recorded PBM binding z-score for "TCGAGTGGGTTACGGGGGCATTCAGGGATGAAGA" , which is 2.74

Kindly note the recorded PBM binding z-score for "CCGACTAGGTTACGAGGGGGCATTCAGTGCGAAT" , which is 1.62

###

Assign PBM binding z-score to each entry below.
test system: PPARa:RXRa (NR concentration 270 nM, RXRa partner concentration 90 nM); assay: PBM binding z-score (relative to random genomic background probes); higher = stronger binding; sequences stand for … in GC…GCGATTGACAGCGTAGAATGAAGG
Kindly provide the number alone.

Kindly note the recorded PBM binding z-score for "TCGAGTAGGTAACGGGGGCATTCAGGGATGAAGA" , which is 3.41

Kindly note the recorded PBM binding z-score for "AGTAAAAGTTCACTAGGTAACGTAAGATTCAGCT" , which is 4.32

Kindly note the recorded PBM binding z-score for "CCGAGTAGGTTACGAGGGGGCATTCCGTGCGAAT" , which is 3.36

Kindly note the recorded PBM binding z-score for "TAGCCTAGGTCATTCAGGGGCCAGAATAGAAAGC" , which is 3.9

Kindly note the recorded PBM binding z-score for "CGTCCAAGGTCATGGGAGGTCAGTGAAGACAGAT" , which is 6.08

Kindly note the recorded PBM binding z-score for "CGAACTAGGTCAAAGGACAGTGACAGGCGACGTA" , which is 5.56

Kindly note the recorded PBM binding z-score for "CCTTACGGGTCACTCCAGGTTCTAGCATCGGAGT" , which is 4.28

Kindly note the recorded PBM binding z-score for "CGTCCAAGGTCAGAGAGGTCAGTGTATGCCGAGT" , which is 4.71

Kindly note the recorded PBM binding z-score for "CGTCCAAGGTCAAGGGCAGTGAAAGAGACTCGAA" , which is 5.93

Kindly note the recorded PBM binding z-score for "CCTAGTTGGTCAAGGTAACACACGCTATAGGTAC" , which is 0.749

Kindly note the recorded PBM binding z-score for "CCTAGTTGGTCAGGAGGTCCCACACCGGATATGA" , which is -0.0736

Kindly note the recorded PBM binding z-score for "ATATGTAGGTTTGGGTCATTCAGAAAGTAGGGAA" , which is 3.1

Kindly note the recorded PBM binding z-score for "CCTGCTAGGTCAAGGGTCAGCTAAAGCAGCTCGC" , which is 5.91

Kindly note the recorded PBM binding z-score for "TCGAGTAGGTTACGCGGGCATTCAGGGATGAAGA" , which is 1.49

Kindly note the recorded PBM binding z-score for "CTATGTAGGTTAAGGGGGTCATTTAGTTTGAAAG" , which is 5.83

Kindly note the recorded PBM binding z-score for "CGAACTAGGTCAAAGGCCAGTGAAAGGCGACGTA" , which is 5.83

Kindly note the recorded PBM binding z-score for "TCGAGTAGGTTTCGGGGGCATTCAGGGATGAAGA" , which is 2.96

Kindly note the recorded PBM binding z-score for "TCGAGTAGGTTACGGGGACATTCAGGGATGAAGA" , which is 2.4

Kindly note the recorded PBM binding z-score for "CCATGTAGGTTAAGGGGGTCATTCAGTTTGAAAG" , which is 5.88

Kindly note the recorded PBM binding z-score for "CTATGCAGGTTAAGGGGGTCATTCAGTTTGAAAG" , which is 5.63

Kindly note the recorded PBM binding z-score for "TCGAGTAGGTTACAGGGGCATTCAGGGATGAAGA" , which is 2.44

Kindly note the recorded PBM binding z-score for "ATATCTAGGTAAAAGTTCAGTGAATCCCGAGGAT" , which is 5.76

Kindly note the recorded PBM binding z-score for "ATATGTAGGTTAGGGTCATTCAAAAAGTAGGGAA" , which is 5.83

Kindly note the recorded PBM binding z-score for "ATATGTAGGATAGGGTCATTCAGAAAGTAGGGAA" , which is 4.62

Kindly note the recorded PBM binding z-score for "ATCGAAAGGTCGAAGGTGAGTCTACCCACCCGAA" , which is 4.78

Kindly note the recorded PBM binding z-score for "CGTCCAAGGTCAATTCTAGGTCAGTGAAAGCATT" , which is 5.01
